Target: human PAH with the R408W mutation (Homo sapiens, UniProt P00439, R408W)
Construct: expressed in transfected cells
Sequence (P00439 whole entry R408W): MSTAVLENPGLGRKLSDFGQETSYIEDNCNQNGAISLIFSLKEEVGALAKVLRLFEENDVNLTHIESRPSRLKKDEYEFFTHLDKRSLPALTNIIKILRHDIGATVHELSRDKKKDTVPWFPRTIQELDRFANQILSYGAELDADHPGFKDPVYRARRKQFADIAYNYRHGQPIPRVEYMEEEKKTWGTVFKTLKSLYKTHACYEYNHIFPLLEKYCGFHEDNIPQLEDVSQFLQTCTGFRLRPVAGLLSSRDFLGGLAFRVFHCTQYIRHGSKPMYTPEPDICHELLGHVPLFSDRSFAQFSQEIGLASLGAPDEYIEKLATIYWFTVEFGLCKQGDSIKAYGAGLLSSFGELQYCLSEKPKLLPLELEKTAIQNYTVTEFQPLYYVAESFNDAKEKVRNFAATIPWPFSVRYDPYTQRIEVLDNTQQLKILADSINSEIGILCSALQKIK
Test: Cell Based Phenylalanine Flux Assay;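 further: after compound treatment, cells received sepiapterin plus isotope-labelled Phenylalanine for 4 hours, then labelled Tyrosine in the medium was quantified, 10-point 2-fold dilution series run in duplicate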
Conditions: A375 cells expressing R408W PAH; 24 hrs with compound, then 20 µM sepiapterin and 800 µM 13C9,15N-Phenylalanine for 4 hours; 13C-Tyrosine by LC-MS; average where tested multiple times; read-out: AC50
Recorded AC50 by entry

Completed entries (count: 5):
INSERT INTO results (compound, observed) VALUES
  ('Cc1ncccc1-c1nnc(N2CCc3[nH]cnc3C2c2cc3c(C4CC4)cccn3n2)o1 (centres unmarked)', '1 to 5 µM'),
  ('Cn1cc(-c2ccc3c(C(=O)N4CCc5[nH]cnc5[C@@H]4c4cc5ccccn5n4)cnn3c2)cn1 (single isomer, unassigned)', '1 to 5 µM'),
  ('Cc1cccc2cc(C3c4nc[nH]c4CCN3C(=O)c3cnn4cc(C5CC5)ccc34)nn12 (centres unmarked)', '1 to 5 µM'),
  ('Cc1cccn2nc([C@H]3c4nc[nH]c4CCN3c3nnc(-c4cccnc4)o3)cc12 (single isomer, unassigned)', '> 5 µM'),
  ('CC(C)(C)c1nnc(C(=O)N2CCc3[nH]cnc3C2c2cc3cc(F)ccn3n2)o1 (centres unmarked)', '> 5 µM');

AC50 in this record for Cc1cccn2nc(C3c4nc[nH]c4CCN3C(=O)c3nnc(-c4cncn4C)o3)cc12 (centres unmarked) : 1 to 5 µM

Note to self: AC50 recorded for CC(C)(O)c1ncc(C(=O)N2CCc3[nH]cnc3C2c2cc3cccc(C(F)(F)F)n3n2)o1 (centres unmarked) was 1 to 5 µM

Looking up Cn1cc(-c2ccc3c(C(=O)N4CCc5[nH]cnc5C4c4cc5ccccn5n4)cnn3c2)cn1 (centres unmarked) , I found its AC50 recorded as 1 to 5 µM
